experiment: Half life in CD1 mouse at 5 mg/kg, iv; format: ADME, organism-based; settings: in vivo
property_measured: half-life (h)
Provide only the numeric value, understood in h.

## Input Report half-life for "CN[C@H](CC(C)C)C(=O)N[C@H]1C(=O)N[C@@H](CC(N)=O)C(=O)N[C@H]2C(=O)N[C@H]3C(=O)N[C@H](C(=O)N[C@H](C(=O)O)c4cc(O)c(CNCCCNC(=O)[C@H](O)[C@@H](O)[C@H](O)[C@H](O)CO)c(O)c4-c4cc3ccc4O)[C@H](O)c3ccc(c(Cl)c3)Oc3cc2cc(c3O[C@@H]2O[C@H](CO)[C@@H](O)[C@H](O)[C@H]2O[C@H]2C[C@](C)(NCc3ccc(-c4ccc(C(F)(F)F)cc4)cc3)[C@H](O)[C@H](C)O2)Oc2ccc(cc2Cl)[C@H]1O" please.
## Output 3.72

Where do these numbers come from? They come from ChEMBL document CHEMBL4052823.
